From: ChEMBL document CHEMBL1933063

# ASSAY_SYSTEM: Broad substrate specificity ATP-binding cassette transporter ABCG2 (Homo sapiens, UniProt Q9UNQ0)
# Sequence (Q9UNQ0 whole entry): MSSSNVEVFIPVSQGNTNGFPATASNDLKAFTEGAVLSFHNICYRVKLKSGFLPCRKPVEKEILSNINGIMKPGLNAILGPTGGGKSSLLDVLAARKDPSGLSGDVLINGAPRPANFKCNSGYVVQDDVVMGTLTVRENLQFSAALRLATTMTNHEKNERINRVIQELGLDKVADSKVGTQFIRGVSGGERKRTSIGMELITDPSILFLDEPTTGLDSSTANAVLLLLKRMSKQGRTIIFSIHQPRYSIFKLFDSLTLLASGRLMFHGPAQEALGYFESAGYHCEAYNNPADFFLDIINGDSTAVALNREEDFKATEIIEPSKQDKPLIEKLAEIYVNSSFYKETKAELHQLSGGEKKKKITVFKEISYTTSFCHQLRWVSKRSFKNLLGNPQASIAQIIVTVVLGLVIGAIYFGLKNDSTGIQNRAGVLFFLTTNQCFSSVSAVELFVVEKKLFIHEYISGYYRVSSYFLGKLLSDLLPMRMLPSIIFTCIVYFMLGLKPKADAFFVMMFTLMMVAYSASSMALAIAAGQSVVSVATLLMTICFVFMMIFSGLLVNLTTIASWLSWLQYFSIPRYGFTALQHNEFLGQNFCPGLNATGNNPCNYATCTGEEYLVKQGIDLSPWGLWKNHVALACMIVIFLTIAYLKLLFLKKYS
# ASSAY_TEXT: Inhibition of human BCRP expressed in MDCK2 cells assessed as Hoechst 33342 accumulation preincubated for 30 mins by fluorimetry
# Assay type: cell-based, MDCK-II
# COND: read-out: IC50
For each record, write down the corresponding pIC50.
API: returns pIC50 as number; meaning -log10 of concentration in mol/L.

Lookup: What value of pIC50 has been recorded for this entry: COc1cccc(/C=C/C(=O)c2c(O)ccc3ccccc23)c1
Found: 5.71

Lookup: What value of pIC50 has been recorded for this entry: COc1ccc(/C=C/C(=O)c2ccc3ccccc3c2O)cc1
Found: 5.01

Lookup: What value of pIC50 has been recorded for this entry: COc1cccc(/C=C/C(=O)c2ccc3ccccc3c2O)c1
Found: 5.25

Lookup: What value of pIC50 has been recorded for this entry: COc1ccc(C(=O)/C=C/c2ccccc2Cl)cc1OC
Found: 5.11

====

# ASSAY_SYSTEM: UniProt:Q9UNQ0
# ASSAY_TEXT: Inhibition of human BCRP expressed in MDCK2 cells assessed as Hoechst 33342 accumulation preincubated for 30 mins by fluorimetry
# Type: cell-based, MDCK-II
# COND: read-out: IC50
PROPERTY_NAME: IC50 (nM)
Write the number in nM without appending the unit.

Lookup: What value of IC50 has been recorded for this entry: COc1ccc(/C=C/C(=O)c2ccc(OC)cc2O)cc1
Found: 2200

Lookup: What value of IC50 has been recorded for this entry: COc1ccc(C(=O)/C=C/c2ccc(OC)c(OC)c2)c(O)c1
Found: 1060

Lookup: What value of IC50 has been recorded for this entry: COc1ccc(/C=C/C(=O)c2ccc(OC)cc2OC)cc1
Found: 1910

====

# ASSAY_SYSTEM: Broad substrate specificity ATP-binding cassette transporter ABCG2 (Homo sapiens, UniProt Q9UNQ0)
# Sequence (Q9UNQ0 whole entry): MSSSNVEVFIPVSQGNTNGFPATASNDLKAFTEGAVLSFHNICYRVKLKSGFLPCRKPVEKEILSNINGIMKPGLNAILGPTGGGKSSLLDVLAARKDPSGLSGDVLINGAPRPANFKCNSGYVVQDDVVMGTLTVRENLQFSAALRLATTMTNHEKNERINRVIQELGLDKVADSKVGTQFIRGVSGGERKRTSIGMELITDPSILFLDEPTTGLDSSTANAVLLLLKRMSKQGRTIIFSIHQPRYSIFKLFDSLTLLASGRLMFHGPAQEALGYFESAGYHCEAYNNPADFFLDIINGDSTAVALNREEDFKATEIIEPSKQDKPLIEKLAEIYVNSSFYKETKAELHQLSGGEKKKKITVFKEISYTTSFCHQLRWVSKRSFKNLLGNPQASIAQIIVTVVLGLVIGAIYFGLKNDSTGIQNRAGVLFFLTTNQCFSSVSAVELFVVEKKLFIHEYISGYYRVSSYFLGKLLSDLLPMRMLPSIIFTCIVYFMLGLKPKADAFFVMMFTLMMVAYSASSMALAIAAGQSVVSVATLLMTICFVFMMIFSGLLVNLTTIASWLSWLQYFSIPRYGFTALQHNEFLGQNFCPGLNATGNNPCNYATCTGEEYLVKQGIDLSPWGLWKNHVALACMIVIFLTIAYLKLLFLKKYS
# ASSAY_TEXT: Inhibition of BCRP in human MCF7/MX cells assessed as Hoechst 33342 accumulation preincubated for 30 mins by Fluorometry
# Assay type: cell-based
# COND: read-out: IC50
For each record, write down the corresponding pIC50.
API: returns pIC50 as number; meaning -log10 of concentration in mol/L.

Lookup: What value of pIC50 has been recorded for this entry: COc1ccc(C(=O)/C=C/c2ccccc2Cl)c(OC)c1
Found: 5.50

Lookup: What value of pIC50 has been recorded for this entry: COc1ccc(/C=C/C(=O)c2ccc(OC)cc2O)cc1
Found: 5.38

Lookup: What value of pIC50 has been recorded for this entry: COc1ccc(/C=C/C(=O)c2ccc(OC)c(OC)c2)cc1OC
Found: 5.48

Lookup: What value of pIC50 has been recorded for this entry: COc1ccc(/C=C/C(=O)c2ccc(OC)cc2OC)cc1 [METOCHALCONE]
Found: 5.63
